Can you tell me shrunken log2 fold change for the items I'm about to list?
tested on: Escherichia coli TOP10; experiment: shrunken log2 fold change of peptide-encoding DNA abundance (4.5 h post-induction vs induction); higher = less antimicrobial activity (less host growth inhibition); conditions: time post-induction: 4.5 h; library: site-saturation at positions 5, 18, 19, 20

API: value(readout=shrunken log2 fold change, system=Escherichia coli TOP10) for record `RRIRWRPPRLPRPRPRPQWAPRP`
0.829

Same lookup for `RRIRARPPRLPRPRPRPDFEPRP` , please.
0.661

What do we get for `RRIRHRPPRLPRPRPRPSTMPRP` ?
-0.493

Consider next the sequence `RRIRDRPPRLPRPRPRPQENPRP` in the same way.
0.0153

Thanks! And `RRIRMRPPRLPRPRPRPGQQPRP` ?
1.34

What would you report for `RRIRARPPRLPRPRPRPGHMPRP` ?
-0.0412

Likewise for `RRIRIRPPRLPRPRPRPCEEPRP` ?
0.0173

// same read-out, input: `RRIRSRPPRLPRPRPRPKHEPRP`
0.076

And for `RRIRCRPPRLPRPRPRPGWMPRP` ?
0.0485

What about this sequence? `RRIRIRPPRLPRPRPRPQFPPRP`
-0.0492

// repeat for `RRIRLRPPRLPRPRPRPHHVPRP` and report
-0.272

Input `RRIRWRPPRLPRPRPRPPWRPRP`
0.696

Would you mind doing `RRIRNRPPRLPRPRPRPYFLPRP` as well?
-0.897

Same again, this time with `RRIRLRPPRLPRPRPRPENCPRP`
-0.0062

// repeat for `RRIRLRPPRLPRPRPRPMKEPRP` and report
-0.019

Next up: `RRIRPRPPRLPRPRPRPYYKPRP`
-0.215

Try this sequence too: `RRIRTRPPRLPRPRPRPVRIPRP`
-0.0431

And what about the sequence `RRIRGRPPRLPRPRPRPGMSPRP` ?
0.417

Then this sequence: `RRIRLRPPRLPRPRPRPSYYPRP`
-0.963

Input `RRIRERPPRLPRPRPRPGMYPRP`
-0.0383

Again, but for `RRIRCRPPRLPRPRPRPPHVPRP`
0.385

Entry `RRIRPRPPRLPRPRPRPVNFPRP` please
-0.59

Would you kindly repeat that for `RRIRPRPPRLPRPRPRPPHKPRP` ?
0.452

# iterate: `RRIRFRPPRLPRPRPRPIEKPRP`
-0.0389

Next sequence: `RRIRHRPPRLPRPRPRPEIKPRP`
-0.264

# repeat for `RRIRCRPPRLPRPRPRPFHFPRP`
-0.954

Lookup `RRIRRRPPRLPRPRPRPYDHPRP`
-0.149

Cool, now `RRIRHRPPRLPRPRPRPQNHPRP`
-0.922

`RRIRFRPPRLPRPRPRPAAAPRP` , same question.
0.551

Next entry: `RRIRRRPPRLPRPRPRPIWCPRP`
-0.0104

Also, `RRIRLRPPRLPRPRPRPRMPPRP` please.
0.352

// query: `RRIRHRPPRLPRPRPRPLNPPRP`
-0.204

Next up: `RRIRIRPPRLPRPRPRPAKTPRP`
0.0509

Also `RRIRIRPPRLPRPRPRPFRDPRP` , if possible.
-0.111

Follow-up entry: `RRIRERPPRLPRPRPRPRNQPRP`
-0.312

Another sequence: `RRIRCRPPRLPRPRPRPCMMPRP`
-0.914

Cool, now `RRIRLRPPRLPRPRPRPPDYPRP`
-0.199

Also check `RRIRLRPPRLPRPRPRPFQTPRP`
-0.0347

Query `RRIRGRPPRLPRPRPRPMQIPRP` next
0.406

How about `RRIRFRPPRLPRPRPRPNGRPRP` ?
-0.123

Proceed to `RRIRKRPPRLPRPRPRPCMPPRP`
0.0752

Now the same for `RRIRSRPPRLPRPRPRPILIPRP`
-0.384

Next up: `RRIRNRPPRLPRPRPRPENRPRP`
-0.0205

Lookup `RRIRPRPPRLPRPRPRPWHMPRP`
-0.0632

Same question for `RRIRNRPPRLPRPRPRPHYLPRP` please.
-0.218

Try this sequence next: `RRIRMRPPRLPRPRPRPNCNPRP`
0.675

Same question, `RRIRPRPPRLPRPRPRPCWHPRP` this time
-0.261

What do we get for `RRIRKRPPRLPRPRPRPVHGPRP` ?
0.0412

Also, `RRIRWRPPRLPRPRPRPIYLPRP` please.
-0.674

Could you do the same for `RRIRRRPPRLPRPRPRPWVAPRP` , please?
0.219

Now try `RRIRTRPPRLPRPRPRPKIEPRP` .
-0.00653

Repeat for the following sequence: `RRIRTRPPRLPRPRPRPYSIPRP`
0.015

Same again, this time with `RRIRCRPPRLPRPRPRPQVVPRP`
-0.266

Proceed to `RRIRSRPPRLPRPRPRPAARPRP`
0.247

Entry to check: `RRIRFRPPRLPRPRPRPVQVPRP`
-0.416

Same again, this time with `RRIRYRPPRLPRPRPRPWYIPRP`
-0.00804

`RRIRCRPPRLPRPRPRPQYQPRP` , same question.
-0.697

Can you handle `RRIRKRPPRLPRPRPRPGGRPRP` next?
1.91

Request: `RRIRGRPPRLPRPRPRPVLSPRP`
0.238

Param item: `RRIRQRPPRLPRPRPRPCHAPRP`
-0.126

Try `RRIRTRPPRLPRPRPRPMKDPRP` next.
-0.303

Similarly, `RRIRMRPPRLPRPRPRPPKNPRP` ?
1.18

Again, but for `RRIRIRPPRLPRPRPRPKVHPRP`
-0.094

----------
system: Escherichia coli TOP10; assay: shrunken log2 fold change of peptide-encoding DNA abundance (4.5 h post-induction vs induction); higher = less antimicrobial activity (less host growth inhibition); details: time post-induction: 4.5 h; library: site-saturation at positions 5, 18, 19, 20;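 further: peptides expressed intracellularly from a pBAD plasmid library in pooled LB shake-flask culture, induced with 0.3% L-arabinose, DNA abundance read by NGS, three biological replicates, DESeq2 with apeglm shrinkage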
metric: shrunken log2 fold change
Answer field: number only, no words.

What value of shrunken log2 fold change has been recorded for this entry: `RRIRDRPPRLPRPRPRPFSIPRP`
0.0044

Same read-out for `RRIRHRPPRLPRPRPRPMRSPRP` ?
-0.00134

Repeat with `RRIRDRPPRLPRPRPRPGLKPRP`
-0.0696

Next record, please: `RRIRERPPRLPRPRPRPWAQPRP`
-0.0813

Same lookup for `RRIRSRPPRLPRPRPRPMPPPRP` , please.
0.435

Cool, now `RRIRMRPPRLPRPRPRPGYQPRP`
-0.0727

Also `RRIRIRPPRLPRPRPRPDVYPRP` ?
-0.571

Now consider `RRIRWRPPRLPRPRPRPLFMPRP` and answer again.
-0.286

And what about the sequence `RRIRNRPPRLPRPRPRPARWPRP` ?
0.531

Entry to check: `RRIRNRPPRLPRPRPRPTEVPRP`
-0.268

Another sequence to check: `RRIRDRPPRLPRPRPRPIRNPRP`
0.011

Do the same for `RRIRWRPPRLPRPRPRPFQQPRP` please
-0.0106

Ok, now `RRIRNRPPRLPRPRPRPQSQPRP`
-0.7

What about this sequence? `RRIRARPPRLPRPRPRPEIWPRP`
1.55

Record: `RRIRKRPPRLPRPRPRPMFTPRP`
-0.0707

Another sequence to check: `RRIRDRPPRLPRPRPRPFTWPRP`
-0.12

What do we get for `RRIRQRPPRLPRPRPRPVLYPRP` ?
0.0138

Note, next up: `RRIRLRPPRLPRPRPRPMKLPRP`
-0.187

Item: `RRIRHRPPRLPRPRPRPNYDPRP`
-0.471

`RRIRPRPPRLPRPRPRPQQVPRP` ?
0.14

And then `RRIRPRPPRLPRPRPRPPEAPRP` , what is it?
0.0126

Next record, please: `RRIRWRPPRLPRPRPRPFRNPRP`
-0.209

Record: `RRIRERPPRLPRPRPRPRMTPRP`
0.0697

Same lookup for `RRIRSRPPRLPRPRPRPWADPRP` , please.
-0.307

Then what about the sequence `RRIRGRPPRLPRPRPRPIMEPRP` ?
0.229

# repeat for `RRIRYRPPRLPRPRPRPYNIPRP`
-0.426

What do we get for `RRIRCRPPRLPRPRPRPPIAPRP` ?
1.41

Again, but for `RRIRQRPPRLPRPRPRPCCDPRP`
-0.0081

Follow-up entry: `RRIRYRPPRLPRPRPRPNQKPRP`
-0.0988

Same again, this time with `RRIRMRPPRLPRPRPRPLARPRP`
0.659

Now the same for `RRIRRRPPRLPRPRPRPYPPPRP`
-0.176

Moving on to the next sequence: `RRIRMRPPRLPRPRPRPSNTPRP`
-0.0896

And for `RRIRTRPPRLPRPRPRPTPGPRP` ?
0.296

Can you handle `RRIRIRPPRLPRPRPRPTFMPRP` next?
1.69

Also `RRIRDRPPRLPRPRPRPKCWPRP` ?
-0.00042

How about `RRIRYRPPRLPRPRPRPGNMPRP` ?
-0.55

Please give the result for `RRIRCRPPRLPRPRPRPVIFPRP` too.
-0.408

Same lookup for `RRIRMRPPRLPRPRPRPMRYPRP` , please.
-0.0558

Next: `RRIRCRPPRLPRPRPRPVIWPRP`
0.0816

What would you report for `RRIRFRPPRLPRPRPRPCYTPRP` ?
-0.239

What do you have for `RRIRFRPPRLPRPRPRPGELPRP` ?
0.245

Proceed to `RRIRPRPPRLPRPRPRPCDWPRP`
0.0592

Also check `RRIRGRPPRLPRPRPRPEMGPRP`
1.37

Then `RRIRLRPPRLPRPRPRPAMLPRP` ?
-0.0377

Let us now turn to `RRIRNRPPRLPRPRPRPCYMPRP`
0.0787

Likewise for `RRIRWRPPRLPRPRPRPCCRPRP` ?
0.174

Now consider `RRIRSRPPRLPRPRPRPSNHPRP` and answer again.
-0.503

Similarly, `RRIRERPPRLPRPRPRPWAVPRP` ?
-0.0984

What do we get for `RRIRMRPPRLPRPRPRPSYHPRP` ?
-0.402

Would you kindly repeat that for `RRIRFRPPRLPRPRPRPCKHPRP` ?
-0.0872

How about this sequence: `RRIRRRPPRLPRPRPRPWWCPRP`
4.82

Also `RRIRHRPPRLPRPRPRPKTTPRP` , if possible.
-0.052

Try `RRIRNRPPRLPRPRPRPVKQPRP` next.
0.00788

And for `RRIRTRPPRLPRPRPRPRYDPRP` ?
-0.123

Next sequence: `RRIRPRPPRLPRPRPRPRYTPRP`
-0.266

What would you report for `RRIRTRPPRLPRPRPRPQALPRP` ?
0.231

Same for `RRIRCRPPRLPRPRPRPSAYPRP`
-0.406

Also, `RRIRYRPPRLPRPRPRPWPSPRP` please.
-0.00149

Another sequence to look at: `RRIRQRPPRLPRPRPRPAESPRP`
0.0234

Could you do the same for `RRIRTRPPRLPRPRPRPVNFPRP` , please?
-0.484

Next record, please: `RRIRERPPRLPRPRPRPQKRPRP`
0.462

Follow-up entry: `RRIRVRPPRLPRPRPRPGVYPRP`
-0.0713

Record: `RRIRRRPPRLPRPRPRPVCKPRP`
-0.012
